Reported cytotoxicity at 10 µM is given for each of the following compounds.
assay: Toxicity liver stage against HepG2, at 10uM; type: cell-based; design: test concentration 10 uM, cell line HepG2-A16-CD81EGFP; settings: human, HepG2-A16-CD81EGFP cells; read-out: INHIBITION
parameter.measured: cytotoxicity at 10 µM (%)

1. Cc1ccnc(NCc2cccc(OCCN3CCOCC3)c2)n1
2.5
2. Cc1cnc(N2CCN(C(C)C(N)=O)CC2)nc1 (centres undefined)
0.399
3. CC(C)CCN1CCN(CC(=O)Nc2ccc3nsnc3c2)CC1
-0.216
4. COCCOCC1(CNCc2cccc(OC)c2)C[C@@H](O)[C@@H](O)C1 (some centres undefined)
0.994
5. CC[C@@H](C)[C@H](NC(=O)CCn1cc(C(C)=O)c2ccccc21)C(=O)O
-5.27
6. CC(C)c1nsc(N2CCC(OCCN3CCOCC3)CC2)n1
-14.2
7. CCN(C(=O)CN1CCCC1Cc1ccccc1)c1ccccc1 (centres undefined)
0.686
8. Cn1ccc(NC(=O)CN2C[C@@H]3CC[C@H]2CN(S(C)(=O)=O)C3)n1
-14.2
9. CN(C)CCNC(=O)C1Cc2nc(-c3ccccc3)sc2N1CC1CC1 (centres undefined)
5.15
10. N#Cc1cccc(OCCN2CCCC(c3noc(C4CC4)n3)C2)c1 (centres undefined)
-0.276
11. CCn1cc2c(n1)CN(S(=O)(=O)c1cccnc1)CC2COC (centres undefined)
5.74
12. Cc1nc(C2CCCN(C(=O)COCc3ccccc3Cl)C2)no1 (centres undefined)
5.8
13. COc1cccc(-c2noc(C3CCN(Cc4cn(C)nc4C)C3)n2)c1 (centres undefined)
11.4
14. Cc1ccnn1CCC(=O)N1CCN(C2CCc3ccccc3C2)CC1 (centres undefined)
-118
15. COC(=O)c1ccc(N2CCN(C(=O)c3ccn(C)c(=O)c3)CC2)cc1
2.7
16. COc1ccc(C(=O)N2CCN(C(=O)c3csc(C(C)C)n3)CC2)cc1
-10.4
17. COCCS(=O)(=O)Nc1ccc(-n2nccc2C(F)(F)F)cc1
1.26
18. O=C(NCc1ccc(-n2cncn2)nc1)c1cc[nH]n1
-7.45
19. CN1CC2(CCN(CC3CC3)CC2)COc2ccccc2S1(=O)=O
-0.697
20. COc1ccc(S(=O)(=O)C(F)(F)F)cc1NC(=O)CSC
10.9
21. Cc1cc(C(=O)Nc2ccc3c(ccn3CCN3CCOCC3)c2)on1
4.29
22. CCN(CC(=O)NC1(C)CCS(=O)(=O)C1)Cc1ccc(OC)c(F)c1 (centres undefined)
-9.44
23. O=C1CCC(=O)c2oc3ccc(Cl)cc3c2N1
7.58
24. O=C(NC1CCCN(CCCc2ccccc2)C1)c1ccncc1 (centres undefined)
0.524
